Value source: patent US7282522B2

system: rabbits; test: Primary skin irritation test on animals (Draize P.I.I.); details: depilated back, 0.5 ml of 1% solution in 1,3-butylene glycol:ethanol 7:3, observed 24 or 72 hours later
Record form. Attribute: P.I.I. (Primary Irritation Index). Fill in for each entry.
// no unit, no text: just the number

### Prompt So what's the measured P.I.I. (Primary Irritation Index) for this one? CC(C)(C)c1ccc(C(=O)Nc2ccc(C(=O)NO)cc2)cc1 [Example 8]
### Response 0.330

### Prompt So what's the measured P.I.I. (Primary Irritation Index) for this one? CCCCc1ccc(C(=O)Nc2ccc(CC(=O)NO)cc2)cc1 [Example 29]
### Response 0.234

### Prompt So what's the measured P.I.I. (Primary Irritation Index) for this one? CCc1ccc(C(=O)Nc2ccc(CC(=O)NO)cc2)cc1 [Example 26]
### Response 0.321

### Prompt So what's the measured P.I.I. (Primary Irritation Index) for this one? CCCc1ccc(C(=O)Nc2ccc(CC(=O)NO)cc2)cc1 [Example 27]
### Response 0.568

### Prompt So what's the measured P.I.I. (Primary Irritation Index) for this one? CN(O)C(=O)Cc1ccc(NC(=O)C23CC4CC(CC(C4)C2)C3)cc1 [Example 33]
### Response 0.765

### Prompt So what's the measured P.I.I. (Primary Irritation Index) for this one? CN(O)C(=O)c1ccc(NC(=O)C23CC4CC(CC(C4)C2)C3)cc1 [Example 11]
### Response 0.375
